test system: SK-OV-3 ovarian; assay: NCI tumour cell line growth inhibition, 48 h
experimental.endpoint: TGI

Before answering, review these 6 worked examples.
>>> assay_result("COc1cc(/C=C2\\C(=O)N(c3cccc(Cl)c3)C(c3ccccc3)S2(=O)=O)cc(OC)c1OC (centres undefined)")
"> 100 µM"
>>> assay_result("CSC1=Nc2c(c(C)c(-c3ccccc3)n2COC(CO)CO)C2=NC(=O)C(C)N12 (centres undefined)")
"> 100 µM"
>>> assay_result("CCCCc1ccc(Nc2nc3c(ncn3C3OC(COC(C)=O)C(OC(C)=O)C3OC(C)=O)c(=O)[nH]2)cc1 (centres undefined)")
"71.1 µM"
>>> assay_result("C/C(=N/O)C1CC=C(S(=O)(=O)c2ccccc2)C1 (centres undefined)")
"> 100 µM"
>>> assay_result("CCCNc1nc(N(C)O)nc(N(C)O)n1")
"> 100 µM"
>>> assay_result("COC(=O)N1CC[C@@H]2CCC=C(c3cccc4c3OCO4)[C@@H]21")
"> 100 µM"

Hi! Can you tell me TGI for each of these compounds?
1. COCCc1c(C)c(C#N)c2n(C)c3ccccc3n2c1=O
2. Cc1ccnc(NS(=O)(=O)c2ccc(NC(=O)c3ccc4nc5ccccc5c(Nc5ccc(S(=O)(=O)Nc6nccc(C)n6)cc5)c4c3)cc2)n1
3. CCc1cccc(C(C)CC)c1N=C(NC(=O)c1ccccc1C(=O)NC(=Nc1c(CC)cccc1C(C)CC)SC)SC (centres undefined)

[out]
["> 10 µM", "> 100 µM", "> 100 µM"]
